These entries and their values trace back to paper PMC6010023.

Target: red kidney bean PAP (rkbPAP) (Phaseolus vulgaris)
Construct: The rkbPAP was purified from red kidney bean according to the method described by Beck et al; from tissue; host or cells: red kidney bean seeds (Phaseolus vulgaris), local market
Sequence (P80366 23-459): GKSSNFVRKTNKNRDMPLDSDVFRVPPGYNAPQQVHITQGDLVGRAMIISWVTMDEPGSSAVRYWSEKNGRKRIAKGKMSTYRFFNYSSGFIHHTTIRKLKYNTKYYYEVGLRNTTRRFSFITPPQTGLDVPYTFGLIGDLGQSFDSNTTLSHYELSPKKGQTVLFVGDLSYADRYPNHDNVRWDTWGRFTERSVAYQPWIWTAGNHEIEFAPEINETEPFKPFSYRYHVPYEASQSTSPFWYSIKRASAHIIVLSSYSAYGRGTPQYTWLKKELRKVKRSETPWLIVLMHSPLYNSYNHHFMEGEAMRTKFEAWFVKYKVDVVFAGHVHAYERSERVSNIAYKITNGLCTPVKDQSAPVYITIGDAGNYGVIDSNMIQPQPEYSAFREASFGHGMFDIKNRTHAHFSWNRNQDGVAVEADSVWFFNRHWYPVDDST
Test: rkbPAP inhibition assay with p-NPP as substrate
Assay type: biochemical
Would you kindly list pIC50 for each of these molecules?
Give bare numbers, as −log10 of the molar value.

INSERT INTO results (molecule, attribute_measured, observed) VALUES
  ('CCCCCCCCCCCCCCCCS(=O)(=O)NC(c1ccc(OC)cc1)P(=O)(OCC)OCC (centres unmarked) [3d]', 'pIC50', 4.04);

// next item, pIC50 requested
### Prompt Identify measured pIC50 obtained with red kidney bean PAP (rkbPAP) (Phaseolus vulgaris) for CCCCCCCCCCCCS(=O)(=O)NC(c1ccc(OC)cc1)P(=O)(OCC)OCC (centres unmarked) [3c] .
### Response 3.12

###

Target: red kidney bean PAP (rkbPAP) (Phaseolus vulgaris, UniProt P80366)
Construct: The rkbPAP was purified from red kidney bean according to the method described by Beck et al; from tissue; host or cells: red kidney bean seeds (Phaseolus vulgaris), local market
Test: rkbPAP inhibition assay with p-NPP as substrate
Assay type: biochemical
Settings: Ki, dissociation constant of enzyme–inhibitor complex (competitive), pH 4.9
attribute.measured: pKi
Numbers only, as −log10 of the molar value.

INSERT INTO assay_data (compound, attribute_measured, observed) VALUES
  ('CCCCCCCCCCCCCCCCS(=O)(=O)NC(c1ccc(OC)cc1)P(=O)(OCC)OCC (centres unmarked)', 'pKi', 4.89);

// next item, pKi requested
### Prompt Name the recorded pKi of the compound listed here: CCCCCCCCCCCCS(=O)(=O)NC(c1ccc(OC)cc1)P(=O)(OCC)OCC (centres unmarked)
### Response 3.69
